- Measured On: human PAH with the R408W mutation (Homo sapiens, UniProt P00439, R408W)
- Construct: expressed in transfected cells
- Experiment Description: Cell Based Phenylalanine Flux Assay
- Measurement Context: A375 cells expressing human R408W PAH; 24 hrs with compound; 13C-Tyrosine by LC-MS; average where tested multiple times; read-out: AC50
Quantity Kind: AC50

Consider the following illustrative entries.
Molecule: O=C(c1nccs1)N1CCc2[nH]cnc2[C@@H]1c1nc2ccc(Cl)cc2[nH]1 (single isomer, unassigned)
AC50: > 5 µM
//
Molecule: O=C(c1cnn2cc(Cc3ccccc3)ccc12)N1CCc2[nH]cnc2C1c1nc2ccccc2s1 (stereo not drawn)
AC50: > 5 µM
//
Molecule: CN(C)CCn1ncc(C(=O)N2CCc3[nH]cnc3C2c2nc3ccccc3s2)c1C#N (stereo not drawn)
AC50: > 5 µM

Recorded AC50 of Cn1nnc(C(=O)N2CCc3[nH]cnc3C2c2nc3ccccc3s2)n1 (stereo not drawn) , please.
1 to 5 µM

====

- Measured On: human PAH with the R408W mutation (Homo sapiens, UniProt P00439, R408W)
- Construct: expressed in transfected cells
- Sequence (P00439 1-452 R408W): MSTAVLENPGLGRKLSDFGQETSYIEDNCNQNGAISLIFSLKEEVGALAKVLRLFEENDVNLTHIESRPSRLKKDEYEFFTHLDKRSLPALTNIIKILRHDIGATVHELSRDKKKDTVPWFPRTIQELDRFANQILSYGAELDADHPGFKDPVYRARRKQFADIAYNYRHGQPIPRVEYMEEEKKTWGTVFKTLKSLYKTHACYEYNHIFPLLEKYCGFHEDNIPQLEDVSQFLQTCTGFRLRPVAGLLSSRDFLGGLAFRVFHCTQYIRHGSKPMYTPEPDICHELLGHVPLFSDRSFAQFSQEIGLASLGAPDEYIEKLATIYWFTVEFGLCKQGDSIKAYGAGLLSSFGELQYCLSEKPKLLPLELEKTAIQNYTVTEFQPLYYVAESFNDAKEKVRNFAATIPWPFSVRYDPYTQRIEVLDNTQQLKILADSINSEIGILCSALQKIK
- Experiment Description: Cell Based Phenylalanine Flux Assay
- Measurement Context: A375 cells expressing human R408W PAH; 24 hrs compound incubation; 13C-Tyrosine by LC-MS; average where tested multiple times; read-out: AC50
Quantity Kind: AC50

Compound: O=C(N1CC(F)C1)N1CCc2[nH]cnc2[C@H]1c1nc2ccccc2s1
AC50: < 500 nM

Compound: O=C(CC1CC1)N1CCc2[nH]cnc2[C@H]1c1nc2ccc(Cl)cc2[nH]1
AC50: < 500 nM

Compound: O=C(c1oc(-c2ccccn2)nc1C(F)F)N1CCc2[nH]cnc2[C@H]1c1nc2ccccc2s1
AC50: < 500 nM

Compound: O=C(CC1CC1(F)F)N1CCc2[nH]cnc2[C@@H]1c1nc2ccccc2s1 (some centres unmarked) [Example 1272]
AC50: > 5000 nM

I have this compound here, CC(F)c1nc(C(F)F)c(C(=O)N2CCc3[nH]cnc3[C@H]2c2nc3c(F)cccc3s2)o1 (single isomer, unassigned) [Example 2074] , and I need its recorded AC50.
< 500 nM

====

- Measured On: human PAH with the R408W mutation (Homo sapiens, UniProt P00439, R408W)
- Construct: expressed in transfected cells
- Experiment Description: Cell Based Phenylalanine Flux Assay
- Measurement Context: A375 cells expressing human R408W PAH; 24 hrs compound incubation; 13C-Tyrosine by LC-MS; average where tested multiple times; read-out: AC50
Quantity Kind: AC50

Known AC50 results, listed for orientation:
Compound: O=C(c1ncc(-c2ccccc2)s1)N1CCc2[nH]cnc2[C@H]1c1nc2ccccc2s1 [Example 1189]
AC50: 1 to 5 µM
--
Compound: Cc1ccc2sc([C@@H]3c4nc[nH]c4CCN3C(=O)c3cncs3)nc2c1 [Example 1293]
AC50: 0.5 to 1 µM
--
Compound: O=C(c1nnc(OCCC(F)(F)F)o1)N1CCc2[nH]cnc2[C@H]1c1nc2ccccc2s1 [Example 1790]
AC50: 0.5 to 1 µM
--
Compound: O=C(c1cnn2c(Br)cccc12)N1CCc2[nH]cnc2[C@H]1c1nc2ccc(F)cc2s1 [Example 1149]
AC50: < 0.5 µM
--
Compound: O=C(c1cnn(-c2ccccn2)c1Cl)N1CCc2[nH]cnc2[C@H]1c1nc2ccccc2s1 [Example 1895]
AC50: 0.5 to 1 µM

For each entry beneath this line, provide reported AC50.
1. O=C(CC1CC1)N1CCc2[nH]cnc2[C@H]1c1nc2ccccc2s1 [Example 1071]
2. O=C(CCC1CC1)N1CCc2[nH]cnc2[C@H]1c1nc2cccc(F)c2s1 [Example 1133]
3. O=C(c1oc(-c2ccccn2)nc1C1CC1)N1CCc2[nH]cnc2[C@@H]1c1nc2cccc(F)c2s1 [Example 1557]
4. CC1(C(=O)N2CCc3[nH]cnc3[C@H]2c2nc3ccccc3s2)CC1(F)F (single isomer, unassigned) [Example 1291]

["< 0.5 µM", "0.5 to 1 µM", "0.5 to 1 µM", "0.5 to 1 µM"]
